Exercise: state measured TGI for each of the molecules provided.
system: U251 CNS; test: NCI tumour cell line growth inhibition, 48 h

Task: Which TGI is reported for this molecule? COc1ccc(C(=O)COc2cccc(/C=C3\CSc4ccc(C)cc4C3=O)c2)cc1
Output: > 100 µM

Task: Please answer likewise for Cc1c2c(n(CCN(C)C)c1C)NN=C(C#N)S2(=O)=O
Output: > 100 µM

Task: Please answer likewise for Cc1nc(Nc2ccc([N+](=O)[O-])cc2)sc1C(/C=C/c1ccc(N(C)C)cc1)=N/NC(=O)c1ccccc1
Output: > 100 µM

Task: Please answer likewise for O=C(O)c1ccccc1/C=N/NC1=NCCCCN1
Output: > 100 µM

Task: Please answer likewise for COC(=O)[C@@]12OC[C@]34C([C@@H](O)C1O)[C@@]1(C)CC(=O)C(OC(=O)/C=C(/c5ccccc5)C(F)(F)F)=C(C)C1C[C@H]3OC(=O)[C@H](O)[C@H]42 (stereo partly specified)
Output: > 50 µM

Task: Please answer likewise for Nc1c(C(=O)Nc2ccccc2F)sc2nc3c(cc12)C(=O)CCC3
Output: > 100 µM
